Test system: human foreskin fibroblasts (HFF)
Test Description: Cytotoxicity in human foreskin fibroblasts, Alamar blue
Assay type: cell-based
Experimental Context: read-out: Cytotoxicity CC50 HFF, 3 days, 0.0009-20 μM
Assay Metric: CC50

Example cases with answers are listed next.
>  <Smiles Str>
CCOc1ccc2cc(-c3nn(C(C)(C)C)c(N)c3C(N)=O)cnc2c1

>  <Assayed Target>
human foreskin fibroblasts (HFF)

>  <Reported Value>
> 20 µM

$$$$
>  <Smiles Str>
CCOc1ccc2cc(-c3nn(CC4CCN(C)CC4)c4ncnc(N)c34)ccc2n1

>  <Assayed Target>
human foreskin fibroblasts (HFF)

>  <Reported Value>
> 20 µM

$$$$

Please look at the following compound next.
# lookup: CC50 of CCOc1ccc2cc(-c3nn(CC4CCN(C)CC4)c4ncnc(N)c34)ccc2c1
> 20 µM
